# key: entry, value: Difference (log2), PP1 vs untreated
Test system: GFP-14-3-3β and its binding proteins
Test: GFP-14-3-3β co-IP with LC-MS/MS label-free quantification, untreated versus PP1c-treated
Design: species or system human
Settings: PP1 vs untreated; label-free quantification
quantityName: Difference (log2), PP1 vs untreated

molecule="RBM3 (protein, UniProt P98179 1-157, looked up) RNA-binding protein 3: MSSEEGKLFVGGLNFNTDEQALEDHFSSFGPISEVVVVKDRETQRSRGFGFITFTNPEHASVAMRAMNGESLDGRQIRVDHAGKSARGTRGGGFGAHGRGRSYSRGGGDQGYGSGRYYDSRPGGYGYGYGRSRDYNGRNQGGYDRYSGGNYRDNYDN" result="1.211 log2"
molecule="MGST1 (protein, UniProt P10620 1-155, looked up) Microsomal glutathione …: MVDLTQVMDDEVFMAFASYATIILSKMMLMSTATAFYRLTRKVFANPEDCVAFGKGENAKKYLRTDDRVERVRRAHLNDLENIIPFLGIGLLYSLSGPDPSTAILHFRLFVGARIYHTIAYLTPLPQPNRALSFFVGYGVTLSMAYRLLKSKLYL" result="1.003 log2"
molecule="ERLIN1 (protein, UniProt O75477 1-348, looked up) Erlin-1: MNMTQARVLVAAVVGLVAVLLYASIHKIEEGHLAVYYRGGALLTSPSGPGYHIMLPFITTFRSVQTTLQTDEVKNVPCGTSGGVMIYIDRIEVVNMLAPYAVFDIVRNYTADYDKTLIFNKIHHELNQFCSAHTLQEVYIELFDQIDENLKQALQKDLNLMAPGLTIQAVRVTKPKIPEAIRRNFELMEAEKTKLLIAAQKQKVVEKEAETERKKAVIEAEKIAQVAKIRFQQKVMEKETEKRISEIEDAAFLAREKAKADAEYYAAHKYATSNKHKLTPEYLELKKYQAIASNSKIYFGSNIPNMFVDSSCALKYSDIRTGRESSLPSKEALEPSGENVIQNKESTG" result="1.221 log2"
